Molecular target: T1, human CLDN6 fused to GFP, expressed on engineered HEK293T cells (HEK293T-CLDN6-mGFP) (human, UniProt P56747 1-220)
T1 construct: It calls residues 1-21 a signal peptide; also called Claudin-6; HEK293T-CLDN6-mGFP Artificial CLDN6+; not shown: mGFP tag
T1 sequence: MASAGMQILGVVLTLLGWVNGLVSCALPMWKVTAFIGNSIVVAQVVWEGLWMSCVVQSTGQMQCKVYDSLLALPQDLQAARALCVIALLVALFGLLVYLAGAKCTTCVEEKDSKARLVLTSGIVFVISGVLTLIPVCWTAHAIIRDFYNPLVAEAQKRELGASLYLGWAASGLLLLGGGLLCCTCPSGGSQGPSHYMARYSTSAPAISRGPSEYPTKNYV
Experiment: FACS, 1.5 µg Ab, 293T clone with human CLDN6

[
  {
    "binder": "AB4-9 (antibody, V domains shown, Humanized; also called Humanized AB 4-9) VH: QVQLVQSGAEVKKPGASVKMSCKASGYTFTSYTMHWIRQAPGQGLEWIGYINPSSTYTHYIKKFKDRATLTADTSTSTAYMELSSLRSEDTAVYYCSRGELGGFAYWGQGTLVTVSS VL: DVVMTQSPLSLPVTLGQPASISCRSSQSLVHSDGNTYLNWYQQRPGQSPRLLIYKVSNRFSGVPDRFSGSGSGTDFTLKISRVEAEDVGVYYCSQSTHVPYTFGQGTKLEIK",
    "FACS fluorescence": 56900
  },
  {
    "binder": "AB1-6 (antibody, V domains shown, also called Humanized AB 1-6) VH: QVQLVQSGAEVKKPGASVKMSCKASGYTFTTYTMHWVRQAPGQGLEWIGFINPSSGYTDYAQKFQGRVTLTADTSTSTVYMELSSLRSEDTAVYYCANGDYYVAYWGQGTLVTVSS VL: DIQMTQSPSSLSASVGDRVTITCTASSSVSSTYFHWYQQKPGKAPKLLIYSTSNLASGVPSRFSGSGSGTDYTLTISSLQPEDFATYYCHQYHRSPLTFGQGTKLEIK",
    "FACS fluorescence": 227000
  },
  {
    "binder": "AB3-4 (antibody, V domains shown, also called Humanized AB 3-4) VH: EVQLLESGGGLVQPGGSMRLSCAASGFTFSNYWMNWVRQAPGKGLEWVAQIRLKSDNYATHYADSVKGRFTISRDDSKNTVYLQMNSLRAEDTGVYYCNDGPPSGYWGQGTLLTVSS VL: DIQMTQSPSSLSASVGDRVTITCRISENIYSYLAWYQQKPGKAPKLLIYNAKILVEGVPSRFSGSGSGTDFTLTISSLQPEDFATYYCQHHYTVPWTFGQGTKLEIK",
    "FACS fluorescence": 55800
  },
  {
    "binder": "AB4-4 (antibody, V domains shown, also called Humanized AB 4-4) VH: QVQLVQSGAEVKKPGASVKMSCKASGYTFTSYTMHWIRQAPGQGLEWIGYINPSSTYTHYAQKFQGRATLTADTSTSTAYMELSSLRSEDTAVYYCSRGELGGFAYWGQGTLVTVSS VL: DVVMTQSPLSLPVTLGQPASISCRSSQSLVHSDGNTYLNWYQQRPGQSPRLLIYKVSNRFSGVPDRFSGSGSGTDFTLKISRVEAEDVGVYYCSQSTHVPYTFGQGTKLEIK",
    "FACS fluorescence": 49000
  },
  {
    "binder": "AB1-5 (antibody, V domains shown, also called Humanized AB 1-5) VH: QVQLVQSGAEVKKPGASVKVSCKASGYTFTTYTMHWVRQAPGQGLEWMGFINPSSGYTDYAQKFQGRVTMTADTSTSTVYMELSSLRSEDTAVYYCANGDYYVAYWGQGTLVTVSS VL: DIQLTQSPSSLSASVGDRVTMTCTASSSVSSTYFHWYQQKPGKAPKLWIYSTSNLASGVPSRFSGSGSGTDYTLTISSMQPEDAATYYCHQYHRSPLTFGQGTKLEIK",
    "FACS fluorescence": 213000
  },
  {
    "binder": "AB11-2 (antibody, V domains shown, also called Humanized AB 11-2) VH: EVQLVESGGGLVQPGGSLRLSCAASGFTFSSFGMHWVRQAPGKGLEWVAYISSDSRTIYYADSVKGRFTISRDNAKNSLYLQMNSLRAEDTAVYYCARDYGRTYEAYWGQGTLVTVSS VL: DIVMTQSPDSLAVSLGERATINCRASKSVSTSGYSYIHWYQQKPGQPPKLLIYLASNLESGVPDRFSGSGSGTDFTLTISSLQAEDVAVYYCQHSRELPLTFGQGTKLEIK",
    "FACS fluorescence": 2560
  },
  {
    "binder": "AB18-chim (antibody, V domains shown, 'chim' is the pre-humanized form (parental variable regions); also called pre-humanized (chimeric) form of AB18) VH: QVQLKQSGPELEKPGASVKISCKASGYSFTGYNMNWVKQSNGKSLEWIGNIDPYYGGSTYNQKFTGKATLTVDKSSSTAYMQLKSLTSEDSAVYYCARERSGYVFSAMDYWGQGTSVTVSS VL: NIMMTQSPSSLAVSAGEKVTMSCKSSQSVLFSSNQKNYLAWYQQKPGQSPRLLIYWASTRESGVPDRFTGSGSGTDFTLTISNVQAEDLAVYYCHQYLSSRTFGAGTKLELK",
    "FACS fluorescence": 135000
  },
  {
    "binder": "AB1-Chim (antibody, V domains shown, 'chim' is the pre-humanized form (parental variable regions); also called pre-humanized (chimeric) form of AB1) VH: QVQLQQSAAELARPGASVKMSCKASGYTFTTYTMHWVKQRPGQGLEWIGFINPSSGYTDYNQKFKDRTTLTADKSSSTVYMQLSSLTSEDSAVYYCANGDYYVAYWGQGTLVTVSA VL: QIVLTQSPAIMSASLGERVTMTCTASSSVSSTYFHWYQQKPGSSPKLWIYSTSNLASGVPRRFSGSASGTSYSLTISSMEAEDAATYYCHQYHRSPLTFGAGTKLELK",
    "FACS fluorescence": 364000
  },
  {
    "binder": "AB4-3 (antibody, V domains shown, also called Humanized AB 4-3) VH: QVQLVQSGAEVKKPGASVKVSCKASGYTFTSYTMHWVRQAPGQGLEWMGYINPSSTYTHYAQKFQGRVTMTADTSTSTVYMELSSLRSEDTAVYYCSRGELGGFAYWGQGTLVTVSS VL: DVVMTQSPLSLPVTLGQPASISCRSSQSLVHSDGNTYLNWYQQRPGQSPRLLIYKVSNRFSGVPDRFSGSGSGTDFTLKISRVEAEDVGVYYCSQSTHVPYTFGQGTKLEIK",
    "FACS fluorescence": 47800
  },
  {
    "binder": "AB11-3 (antibody, V domains shown, also called Humanized AB 11-3) VH: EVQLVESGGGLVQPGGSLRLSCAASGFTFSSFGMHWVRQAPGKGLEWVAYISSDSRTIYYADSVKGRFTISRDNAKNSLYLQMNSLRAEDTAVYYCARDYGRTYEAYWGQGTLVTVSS VL: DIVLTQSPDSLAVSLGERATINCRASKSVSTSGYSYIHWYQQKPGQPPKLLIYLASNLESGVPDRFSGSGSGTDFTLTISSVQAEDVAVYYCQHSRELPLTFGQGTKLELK",
    "FACS fluorescence": 2360
  },
  {
    "binder": "AB1-11 (antibody, V domains shown, Humanized; also called Humanized AB 1-11) VH: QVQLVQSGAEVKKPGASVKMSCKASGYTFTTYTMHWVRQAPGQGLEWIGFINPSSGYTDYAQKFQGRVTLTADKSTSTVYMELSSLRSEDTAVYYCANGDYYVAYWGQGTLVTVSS VL: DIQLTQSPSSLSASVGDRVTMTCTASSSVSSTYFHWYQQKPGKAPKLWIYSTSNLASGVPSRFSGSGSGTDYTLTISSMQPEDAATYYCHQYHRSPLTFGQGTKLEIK",
    "FACS fluorescence": 113000
  }
]
